The measurements presented in this section are drawn from patent US20240182536A1.

# tgt: T1, IL-18 receptors on HEK-Blue IL-18 reporter cells (UniProt Q13478 19-541; O95256 20-599, limits assumed)
# T1 sequence (looked up) 1: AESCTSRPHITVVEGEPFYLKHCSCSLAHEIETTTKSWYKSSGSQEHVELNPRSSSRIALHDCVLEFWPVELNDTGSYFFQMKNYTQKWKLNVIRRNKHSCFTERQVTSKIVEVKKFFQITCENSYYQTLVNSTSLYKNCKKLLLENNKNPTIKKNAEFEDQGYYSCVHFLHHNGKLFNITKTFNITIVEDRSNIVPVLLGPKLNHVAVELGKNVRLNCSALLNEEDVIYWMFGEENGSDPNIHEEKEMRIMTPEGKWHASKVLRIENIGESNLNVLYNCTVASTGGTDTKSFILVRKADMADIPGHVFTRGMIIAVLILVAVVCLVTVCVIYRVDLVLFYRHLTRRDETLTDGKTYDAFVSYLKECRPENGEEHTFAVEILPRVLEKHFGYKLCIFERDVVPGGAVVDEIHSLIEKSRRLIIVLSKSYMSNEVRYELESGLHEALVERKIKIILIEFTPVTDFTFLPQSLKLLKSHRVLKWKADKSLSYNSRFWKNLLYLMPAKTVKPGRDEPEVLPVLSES
# T1 sequence (looked up) 2: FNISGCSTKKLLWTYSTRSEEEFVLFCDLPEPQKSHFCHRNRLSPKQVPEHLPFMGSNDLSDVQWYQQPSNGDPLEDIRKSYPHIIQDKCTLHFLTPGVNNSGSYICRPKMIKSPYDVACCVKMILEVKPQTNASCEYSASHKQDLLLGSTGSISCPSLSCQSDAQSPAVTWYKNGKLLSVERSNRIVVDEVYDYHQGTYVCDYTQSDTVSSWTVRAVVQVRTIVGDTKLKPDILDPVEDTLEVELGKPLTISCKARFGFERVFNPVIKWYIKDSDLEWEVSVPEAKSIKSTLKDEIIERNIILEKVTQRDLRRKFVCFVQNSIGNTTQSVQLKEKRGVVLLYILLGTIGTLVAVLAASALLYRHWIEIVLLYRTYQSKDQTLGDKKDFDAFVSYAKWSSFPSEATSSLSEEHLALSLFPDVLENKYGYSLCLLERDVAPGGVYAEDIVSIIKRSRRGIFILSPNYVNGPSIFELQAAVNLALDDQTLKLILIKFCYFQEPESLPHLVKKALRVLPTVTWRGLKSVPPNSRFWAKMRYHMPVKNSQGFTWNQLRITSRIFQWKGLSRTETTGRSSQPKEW
# protocolSummary: cell-based or functional assay; also: unit not given here
experimentalReadout: HEK-Blue activity, No BP, DF-1,000,000
Number only, please.

>>> recordednumber("IL-18 variant L9V, K53H, S55M (ligand) YFGKLESKVSVIRNLNDQVLFIDQGNRPLFEDMTDSDMRDNAPRTIFIISMYHDMQPRGMAVTISVKSEKISTLSSENKIISFKEMNPPDNIKDTKSDIIFFQRSVPGHDNKMQFESSSYEGYFLASEKERDLFKLILKKEDELGDRSIMFTVQNED")
0.11
>>> recordednumber("IL-18 variant T34N, S36N, D40E, N41G, K53S, S55Q, R104N, H109Y (ligand) YFGKLESKLSVIRNLNDQVLFIDQGNRPLFEDMNDNDMREGAPRTIFIISMYSDQQPRGMAVTISVKSEKISTLSSENKIISFKEMNPPDNIKDTKSDIIFFQNSVPGYDNKMQFESSSYEGYFLASEKERDLFKLILKKEDELGDRSIMFTVQNED")
0.08

### Prompt Returns the measured HEK-Blue activity, No BP, DF-1,000,000 for the input binder. Input: IL-18 variant S7Y, K53H, S55M (ligand) YFGKLEYKLSVIRNLNDQVLFIDQGNRPLFEDMTDSDMRDNAPRTIFIISMYHDMQPRGMAVTISVKSEKISTLSSENKIISFKEMNPPDNIKDTKSDIIFFQRSVPGHDNKMQFESSSYEGYFLASEKERDLFKLILKKEDELGDRSIMFTVQNED
### Response 0.18
